Kindly supply the reported Population Normal (%) values for the records listed here.
Test system: U2OS
assay info: Multiplex assay against U2OS
Assay type: toxicity, cell-based
reported conditions: human, 12 h, 10 µM, compound concentration 10 uM, replicate 1
Please answer in the form of a number followed by its unit of measurement.

For orientation, consider the following solved cases.
compound	Population Normal (%)
Cc1ccc(C)c(Oc2ccncc2C(=O)N2CCN(C3CC3)c3ccccc32)c1	93%
CC(C)NC(=O)N1CC[C@H](NC2=Nc3cc(F)ccc3N(CC(F)F)c3ccc(Cl)cc32)C1	88%
CCCSc1nc(N[C@@H]2C[C@H]2c2ccc(F)c(F)c2)c2nnn([C@@H]3C[C@H](OCCO)[C@@H](O)[C@H]3O)c2n1	92%
C=CC(=O)Nc1ccc2[nH]c(=O)n(C3CCN(Cc4ccc(-c5nc6cc[nH]c(=O)c6cc5-c5ccccc5)cc4)CC3)c2c1	95%

Look at each compound and report its Population Normal (%).
1. CC(C)OC(=O)N1CCC(Oc2ncnc3c2cnn3-c2ccc(S(C)(=O)=O)cc2F)CC1
2. O=c1[nH]c2ccccc2n1C1CCN(Cc2ccc(-c3[nH]c4cc5ncnc5cc4nc3-c3ccccc3)cc2)CC1

1. 93%
2. 95%

Look at each compound and report its Population Normal (%).
1. CCc1nn(CCCN2CCN(c3cccc(Cl)c3)CC2)c(=O)n1CCOc1ccccc1.Cl [NEFAZODONE HYDROCHLORIDE]
2. CNC(=O)Nc1ccc(-c2nc(N3CC4CCC(C3)O4)c3cnn(C4CCC5(CC4)OCCO5)c3n2)cc1
3. Cc1c[nH]c2nccc(Oc3c(F)cc(Nc4cc(Cl)nc(N)n4)cc3F)c12
4. O=C(c1cc2c(cc1F)OC(c1ccc(F)cc1)(c1ccc(Cl)cc1Cl)O2)N1CCOCC1 (stereo not given)

1. 94%
2. 87%
3. 90%
4. 91%

----------
Tested on: U2OS
assay info: Multiplex assay against U2OS
Type: toxicity, cell-based
reported conditions: human, 48 h, 1 µM, compound concentration 1 uM, replicate 2
readout label: Total Cell Count
Numbers only.

Look at each compound and report its Total Cell Count.
1. CCCSc1nc(N[C@@H]2C[C@H]2c2ccc(F)c(F)c2)c2nnn([C@@H]3C[C@H](OCCO)[C@@H](O)[C@H]3O)c2n1
2. Cc1ccccc1C(c1ccccc1C)N1C2CCC1CC(O)(c1ccccc1)C2 (stereo not drawn)
3. Cc1c[nH]c2nccc(Oc3c(F)cc(Nc4cc(Cl)nc(N)n4)cc3F)c12
4. Cl.O=C(O)c1cc(-c2ccc(C3CCNCC3)cc2)c2ccc(-c3ccc(C(F)(F)F)cc3)cc2c1
5. COc1ccc(-c2ccc3ncc4c(c3c2)n(-c2ccc(N3CCNCC3)c(C(F)(F)F)c2)c(=O)n4C)cn1.O=C(O)/C=C\C(=O)O

1. 74
2. 98
3. 106
4. 95
5. 43

Look at each compound and report its Total Cell Count.
1. COc1cc(Nc2nccc(-c3cnn4nc(OC)ccc34)n2)cc(C(F)(F)F)c1
2. CC1=C(C(=O)Nc2cc3cn[nH]c3cc2F)C(c2ccc(C(F)(F)F)cc2)CC(=O)N1 (stereo not drawn)
3. Cc1ccc(C)c(Oc2ccncc2C(=O)N2CCN(C3CC3)c3ccccc32)c1

1. 55
2. 77
3. 69

----------
Tested on: U2OS
assay info: Multiplex assay against U2OS
Type: toxicity, cell-based
reported conditions: human, 12 h, 10 µM, compound concentration 10 uM, replicate 2
So basically: Population Membrane Permeable-Phenotype (%) at 40% or higher? That is Yes. Lower than 40%? That is No.

Example entries and their recorded answers appear below.
molecule	class assignment
CC(C)CC(=O)Nc1[nH]nc2c1CN(C(=O)C1CCN(C)CC1)C2(C)C	No
C=CC(=O)Nc1cccc(Oc2nc(Nc3ccc(N4CCN(C)CC4)cc3OC)ncc2Cl)c1	Yes

Is the recorded value of Population Membrane Permeable-Phenotype (%) equal to or greater than 40% for this molecule? O=C(c1cc2c(cc1F)OC(c1ccc(F)cc1)(c1ccc(Cl)cc1Cl)O2)N1CCOCC1 (configuration not stated)
Yes

Is the recorded value of Population Membrane Permeable-Phenotype (%) equal to or greater than 40% for this molecule? Cc1cccc(CN2CCN(C(c3ccccc3)c3ccc(Cl)cc3)CC2)c1.Cl.Cl (configuration not stated)
No

Is the recorded value of Population Membrane Permeable-Phenotype (%) equal to or greater than 40% for this molecule? CC1=C(C(=O)Nc2cc3cn[nH]c3cc2F)C(c2ccc(C(F)(F)F)cc2)CC(=O)N1 (configuration not stated)
No

Is the recorded value of Population Membrane Permeable-Phenotype (%) equal to or greater than 40% for this molecule? COc1cc2ncn(-c3cc(OCc4ccccc4C(F)(F)F)c(C(N)=O)s3)c2cc1OC [GW843682X]
No

Is the recorded value of Population Membrane Permeable-Phenotype (%) equal to or greater than 40% for this molecule? Cc1ccc2c(c1)c1c(n2CCc2ccc(C)nc2)CCN(C)C1 [LATREPIRDINE]
Yes

----------
Tested on: U2OS
assay info: Multiplex assay against U2OS
Type: toxicity, cell-based
reported conditions: human, 48 h, 1 µM, compound concentration 1 uM, replicate 2
Kindly supply the reported Population Pyknosed Nuclei (%) values for the records listed here.
One number for each entry, in %.

For orientation, consider the following solved cases.
compound	measured on	experimental result
C[C@]12CC[C@@H]3c4ccc(O)cc4CC[C@H]3[C@@H]1CC[C@@H]2O	U2OS	7
CC(C)Oc1ccccc1C(=O)Nc1ccccc1C(=O)Nc1cccc(S(=O)(=O)C(F)(F)F)c1	U2OS	5
COc1ccccc1CN[C@H]1C2CCN(CC2)[C@H]1C(c1ccccc1)c1ccccc1	U2OS	4

Look at each compound and report its Population Pyknosed Nuclei (%).
1. CC1=C(C(=O)Nc2cc3cn[nH]c3cc2F)C(c2ccc(C(F)(F)F)cc2)CC(=O)N1 (stereo not drawn)
2. CC(C)NC(=O)N1CC[C@H](NC2=Nc3cc(F)ccc3N(CC(F)F)c3ccc(Cl)cc32)C1
3. CCCSc1nc(N[C@@H]2C[C@H]2c2ccc(F)c(F)c2)c2nnn([C@@H]3C[C@H](OCCO)[C@@H](O)[C@H]3O)c2n1
4. COc1cc(Nc2nccc(-c3cnn4nc(OC)ccc34)n2)cc(C(F)(F)F)c1
5. Cl.O=C(O)c1cc(-c2ccc(C3CCNCC3)cc2)c2ccc(-c3ccc(C(F)(F)F)cc3)cc2c1
6. CC(C)(C)NC[C@H](O)COc1nsnc1N1CCOCC1
7. Cc1c[nH]c2nccc(Oc3c(F)cc(Nc4cc(Cl)nc(N)n4)cc3F)c12

1. 2
2. 7
3. 6
4. 7
5. 3
6. 5
7. 11

----------
Tested on: U2OS
assay info: Multiplex assay against U2OS
Format: toxicity, cell-based
reported conditions: human, 24 h, 1 µM, compound concentration 1 uM, replicate 1
readout label: Population Pyknosed Nuclei (%)
Please answer in the form of a number followed by its unit of measurement.

Look at each compound and report its Population Pyknosed Nuclei (%).
1. CNC(=O)Nc1ccc2c(c1)[C@@]1(CC2)OC(=O)N(CC(=O)N(Cc2ccc(F)cc2)[C@@H](C)C(F)(F)F)C1=O [A-486]
2. Cc1cccc(CN2CCN(C(c3ccccc3)c3ccc(Cl)cc3)CC2)c1.Cl.Cl (stereo not drawn)
3. CC(C)OC(=O)N1CCC(Oc2ncnc3c2cnn3-c2ccc(S(C)(=O)=O)cc2F)CC1

1: 6%; 2: 6%; 3: 6%

----------
Kindly supply the reported Total Cell Count values for the records listed here.
System: HEK-293T
assay info: Multiplex assay against HEK293T
Assay type: toxicity, cell-based
reported conditions: human, 12 h, 10 µM, compound concentration 10 uM, replicate 1
Answers are plain numbers.

For orientation, consider the following solved cases.
molecule	Total Cell Count
O=c1cc(N2CCOCC2)oc2c(-c3cccc4c3sc3ccccc34)cccc12	192
Cc1ccc2c(c1)c1c(n2CCc2ccc(C)nc2)CCN(C)C1 [LATREPIRDINE]	251

Look at each molecule and report its Total Cell Count.
1. CCCSc1nc(N[C@@H]2C[C@H]2c2ccc(F)c(F)c2)c2nnn([C@@H]3C[C@H](OCCO)[C@@H](O)[C@H]3O)c2n1
2. COc1ccc(-c2ccc3ncc4c(c3c2)n(-c2ccc(N3CCNCC3)c(C(F)(F)F)c2)c(=O)n4C)cn1.O=C(O)/C=C\C(=O)O
3. CC(C)(C)NC[C@H](O)COc1nsnc1N1CCOCC1
4. CC1=C(C(=O)Nc2cc3cn[nH]c3cc2F)C(c2ccc(C(F)(F)F)cc2)CC(=O)N1 (centres undefined)

1. 178
2. 306
3. 293
4. 236

Look at each molecule and report its Total Cell Count.
1. COc1cc(Nc2nccc(-c3cnn4nc(OC)ccc34)n2)cc(C(F)(F)F)c1
2. O=C(c1cc2c(cc1F)OC(c1ccc(F)cc1)(c1ccc(Cl)cc1Cl)O2)N1CCOCC1 (centres undefined)

1. 317
2. 264

Write down the reported Total Cell Count of C=CC(=O)Nc1cccc(Oc2nc(Nc3ccc(N4CCN(C)CC4)cc3OC)ncc2Cl)c1 , test system: HEK-293T.
722
